# log10 EC50 values compiled below
# TARGET OR TEST SYSTEM: T1, human CD19 on CHO-K1-human CD19 cells (human, UniProt P15391 20-556)
# T1 construct: whole, on cells; also called CHO-K1-human CD19-2C8
# T1 sequence (looked up): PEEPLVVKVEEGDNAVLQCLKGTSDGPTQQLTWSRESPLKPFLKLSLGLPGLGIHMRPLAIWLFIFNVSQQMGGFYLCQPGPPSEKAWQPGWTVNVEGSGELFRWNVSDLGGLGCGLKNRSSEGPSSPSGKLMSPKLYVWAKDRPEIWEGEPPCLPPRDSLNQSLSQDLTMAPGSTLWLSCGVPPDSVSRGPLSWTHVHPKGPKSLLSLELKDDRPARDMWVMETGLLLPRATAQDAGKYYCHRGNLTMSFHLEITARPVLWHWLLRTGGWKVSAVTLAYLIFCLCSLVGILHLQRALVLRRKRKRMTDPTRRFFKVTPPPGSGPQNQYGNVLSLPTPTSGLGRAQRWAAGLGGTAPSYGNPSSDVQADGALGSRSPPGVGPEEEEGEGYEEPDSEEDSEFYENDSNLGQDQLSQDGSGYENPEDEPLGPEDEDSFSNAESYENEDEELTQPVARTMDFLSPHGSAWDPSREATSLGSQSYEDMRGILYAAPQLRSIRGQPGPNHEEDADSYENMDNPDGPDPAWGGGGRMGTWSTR
# PROCEDURE DETAILS: FACS on CHO-K1-human CD19 cells
Kindly note that the scale is log10 and the underlying EC50 is in nM.

Record excerpt, results attached:
F4.35.5 (antibody, human IgG1, V domains shown, human-murine chimeric antibody, human IgG1) VH: EIQLQQSGPELVKPGASVKVSCKASGYAFTSYNMYWVKQSHGKSLEWIGYIDPYNGDTRYNQKFKGKATLTVDKSSSTAYMHLNSLTSEDSAVYYCTRSGTGRDYWGQGTTLTVSS VL: QIVLTQSPAIMSASPGEKVTMTCSASSSISYMFWFQQKPGSSPRLLIYDTSSLASGVPVRFSGSGSGTSYTLTISRMEAEDAATYYCQQWSNYPYTFGGGTKLEMK	0.03
F4.96.6 (antibody, human IgG1, V domains shown, human-murine chimeric antibody, human IgG1) VH: EIQLQQSGPELVKPGASVKVSCKASGYAFSAYNIYWVKQSHGKSLEWIGYIDPYNSGTTYNQKFRGKATLTVDKSSNTAYMHLSSLTSEDSAVYYCTRDGDAMDYWGQGTSVTVSS VL: EILLTQSPAIIAASPGEKVTITCSASSGVIYMNWYQQKPGSSPKIWIYDVSTLASGVPARFSGSGSGTSFSFTINSMEAEDVATYYCQQRSSYPYTFGGGTKLEIK	0.06

## Task For the binder F4.15.9 (antibody, human IgG1, V domains shown, human-murine chimeric antibody, human IgG1) VH: QVQLQQSGPELVKPGASVKISCKASGYAFSSSWMNWLKQRPGQGLEWIGRIYPGDGDTNYNGKFKGKATLTADESSSTAYMQLSSLTSVDSAVYFCARGITTIITIAWFASWGQGTLVTVSA VL: QIVLSQSPTILSASPGEKVTMTCRASSSVSYMHWYQQKPGSSPKPWIYATSNLASGVPPRFSGSGSGTSYSLTISRVGAEDAATYYCQQWSSDPWTFGGGTKLEIK , what log10 EC50 is on record?
## Result -0.77

## Task Any idea what log10 EC50 was measured for F4.49.11 (antibody, human IgG1, V domains shown, human-murine chimeric antibody, human IgG1) VH: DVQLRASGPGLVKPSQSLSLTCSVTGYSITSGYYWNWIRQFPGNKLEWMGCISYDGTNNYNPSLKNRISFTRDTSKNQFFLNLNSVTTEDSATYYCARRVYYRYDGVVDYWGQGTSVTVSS VL: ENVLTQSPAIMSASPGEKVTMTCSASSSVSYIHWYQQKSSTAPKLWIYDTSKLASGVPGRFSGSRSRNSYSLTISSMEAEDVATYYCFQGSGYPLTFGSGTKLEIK ?
## Result 0.49

## Task // query log10 EC50 value for entry F3.81.2 (antibody, human IgG1, V domains shown, human-murine chimeric antibody, human IgG1) VH: QVQLQQPGAELVMPGASVKLSCKASAYTFTNYWMHWVKQRPGHGLEWIGEIDPSDSYTDYNQNFKAKATLTVDKSSSTAYMQLSSLTSEDSAVYYCARLMGRYFDVWGTGTTVTVSS VL: DIVMTQSHKFMSTSVGDRVSITCKASQDVSAAVAWYQQKPGQSPKLLINSASYRYTGVPDRFTGSGSGTDFTFTISSVQAEDLAVYYCQQHYSTPLTFGAGTKLELR
## Result 0.10

## Task State the recorded log10 EC50 for this entry: F3.126.15 (antibody, human IgG1, V domains shown, human-murine chimeric antibody, human IgG1) VH: QVQLQQPGAELVMPGASVKLSCKASGYTFTSYWMHWVKQRPGQGLEWIGEIDPSDSYTTYNQNFKGKATLTVDISTSTAYIQLSNLTSEDSAVYYCARLTGNYIHYWGQGTTLTVSS VL: DIVMTQSHKFMSTSVGDRVSITCKASQDVSPAVAWYQQRPGQCPKLLIFSSSYRSTGVPDRFTGSGSGTDFTFTISSVQAEDLAVYYCQQHYSLPLTFGAGTKLELK
## Result 0.39

## Task Reported log10 EC50 for F3.40.14 (antibody, human IgG1, V domains shown, human-murine chimeric antibody, human IgG1) VH: QAQLQQSGPELVKPGASVKISCKASGYAFSGSWMNWVQQRPGKGLEWIGRIYPGDGDTYYSGKFKDKAILTADTSSSTAYMQLSSLTSEDSAVYFCAQLRSRYVMDYWGQGASVTVSS VL: DIVLTQSPASLAVSLGQRATISCRASESVSIHGTHLMHWYQQKPGQPPRLLIYAASNLESGVPARFSGSGSETDFTLNIHPVEEEDAATYFCQQGIDDPYTFGGGTKLEIK : what is it?
## Result 0.78

## Task // log10 EC50 lookup, key: F4.125.12 (antibody, human IgG1, V domains shown, human-murine chimeric antibody, human IgG1) VH: EVKLVESGGGLVQPGGSLKLSCAASGFTFSTYTMSWVRQTPEKRLEWVAFISSGGGHINYPDTVKGRFTISRDNAKNTLYLQMSSLKSEDTAMYYCARHSYWFFDVWGAGTTVTVSS VL: DVQITQSPSYLAASPGETITINCRASKNIDTYLAWYQEKPGKTNKLLIYSGSTLQSGIPSRFRGGGSGTDFTLTICSLEPEDFAMYYCQQHNEYPLTFGAGTKLELK
## Result -0.32

## Task // returns reported log10 EC50 for input F3.114.12 (antibody, human IgG1, V domains shown, human-murine chimeric antibody, human IgG1) VH: DVQLQESGPGLVKPSQSLSLTCSVTGYSITSGYDWNWIRQFPGNKLEWMGYISYDGKNNYNPSLRNRISITRDTSKNQFFLKLNSVTTEDTATYYCARRDLRGYFDVWGTGTTVTVSS VL: DIVLTQSPATLSVTPGDRVSLSCRASQSISNYLHWYQQKSHESPRLLIKYASLSISGIPSRFSGSGSGTDFTLSINSVETEDFGVYFCQQSNSWPLTFGAGTKLELK
## Result 0.37

## Task Tell me the measured log10 EC50 of F3.13.2 (antibody, human IgG1, V domains shown, human-murine chimeric antibody, human IgG1) VH: DVQLQESGPGLMKPSQSLSLTCSVTGYSITSGYYWNWIRQFPGNKLEWMGYISYDGSNNYNPSLKNRFSITRDTSKNQFFLKLNSVTTEDTATYYCARRKLTGGPYFDYWGQGTTLTVSS VL: DIVLTQSPASLAVTLGQRATISCRASESVSFHGFHIMHWYQQKPGQPPKLLIYAASHLVSGVPDRFSGSGSETDFTLNIHPVEEEDAAAYFCQQSVEDPWTFGGGTKLEIK , please.
## Result 0.39
